target: T1, TNFB2 FRET peptide X-PSAAQTARQHP-Z (not fully specified)
T1 chain: PSAAQTARQHP
reported.endpoint: Relative proteolytic activity

{"columns": ["protein", "reported.endpoint", "readout.value"],
 "data": [
  ["soluble recombinant human ADAM15, active form (protein) DVVTETKTVELVIVADHSEAQKYRDFQHLLNRTLEVALLLDTFFRPLNVRVALVGLEAWTQRDLVEISPNPAVTLENFLHWRRAHLLPRLPHDSAQLVTGTSFSGPTVGMAIQNSICSPDFSGGVNMDHSTSILGVASSIAHELGHSLGLDHDLPGNSCPCPGPAPAKTCIMEASTDFLPGLNFSNCSRRALEKALLDGMGSCLFERL", "Relative proteolytic activity", "***"],
  ["soluble recombinant human ADAM8, active (processed) form (protein) RYVELYVVVDNAEFQMLGSEAAVRHRVLEVVNHVDKLYQKLNFRVVLVGLEIWNSQDRFHVSPDPSVTLENLLTWQARQRTRRHLHDNVQLITGVDFTGTTVGFARVSAMCSHSSGAVNQDHSKNPVGVACTMAHEMGHNLGMDHDENVQGCRCQERFEAGRCIMAGSIGSSFPRMFSDCSQAYLESFLERPQSVCLANAP", "Relative proteolytic activity", "***"],
  ["soluble recombinant human MDC-L, active form (protein) VQEHEKYIEYYLVLDNGEFKRYNENQDEIRKRVFEMANYVNMLYKKLNTHVALVGMEIWTDKDKIKITPNASFTLENFSKWRGSVLSRRKRHDIAQLITATELAGTTVGLAFMSTMCSPYSVGVVQDHSDNLLRVAGTMAHEMGHNFGMFHDDYSCKCPSTICVMDKALSFYIPTDFSSCSRLSYDKFFEDKLSNCLFNAP", "Relative proteolytic activity", "***"],
  ["recombinant ADAM17 (protein) RADPDPMKNTCKLLVVADHRFYRYMGRGEESTTTNYLIELIDRVDDIYRNTSWDNAGFKGYGIQIEQIRILKSPQEVKPGEKHYNMAKSYPNEEKDAWDVKMLLEQFSFDIAEEASKVCLAHLFTYQDFDMGTLGLAYVGSPRANSHGGVCPKAYYSPVGKKNIYLNSGLTSTKNYGKTILTKEADLVTTHELGHNFGAEHDPDGLAECAPNEDQGGKYVMYPIAVSGDHENNKMFSNCSKQSIYKTIESKAQECFQERSNKV", "Relative proteolytic activity", "(-)"]
]}
